- method description: MT-4/MTT cytotoxicity assay
- Type: cell-based, human
- condition context: human, MT-4 cells; read-out: Cellular toxicity CC50
Form field: CC50 (one value per entry).

molecule: Cc1nc(-c2cccc(CNC(=O)c3oc(C)cc(=O)c3O)c2)c[nH]1 [HPCAR-89]
CC50: > 125 µM

molecule: Cc1cc(=O)c(O)c(C(=O)NCc2cc(F)cc(-c3ccccn3)c2)o1 [HPCAR-28]
CC50: > 250 µM

molecule: Cc1cc(=O)c(O)c(C(=O)NCc2cccc(-n3cccc3)c2)o1 [HPCAR-142]
CC50: > 85.4 µM

molecule: Cc1nnc(C(=O)NC(C)(C)c2nc(C(=O)NCc3ccc(F)cc3)c(O)c(=O)n2C)o1 [RLT, Raltegravir, reference compound]
CC50: > 18.3 µM
